Measurement target: Human COX-1 (Homo sapiens, UniProt P23219)
Construct: A 2.0 kb fragment containing the coding region of either human or murine COX-1 or human or murine COX-2; made in house; host or cells: SF9 insect cells (baculovirus, transfer vector pVL1393)
Sequence (P23219 24-599): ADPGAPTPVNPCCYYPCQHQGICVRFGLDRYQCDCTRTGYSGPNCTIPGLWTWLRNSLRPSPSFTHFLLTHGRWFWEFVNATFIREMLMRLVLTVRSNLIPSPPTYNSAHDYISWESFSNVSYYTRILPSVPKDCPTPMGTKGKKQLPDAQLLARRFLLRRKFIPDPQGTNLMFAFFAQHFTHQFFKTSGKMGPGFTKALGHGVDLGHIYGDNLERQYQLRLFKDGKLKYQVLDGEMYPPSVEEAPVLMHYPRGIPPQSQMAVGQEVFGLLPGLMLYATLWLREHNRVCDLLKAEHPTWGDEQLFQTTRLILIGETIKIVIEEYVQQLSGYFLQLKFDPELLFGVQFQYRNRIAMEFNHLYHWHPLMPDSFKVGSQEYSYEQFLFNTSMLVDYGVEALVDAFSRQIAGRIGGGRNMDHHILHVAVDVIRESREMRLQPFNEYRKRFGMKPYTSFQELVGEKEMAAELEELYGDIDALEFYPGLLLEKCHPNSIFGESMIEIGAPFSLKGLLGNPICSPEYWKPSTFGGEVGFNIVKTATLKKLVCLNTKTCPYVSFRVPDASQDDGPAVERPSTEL
Method summary: Assay for COX-1 and COX-2 activity (PGE2 ELISA, recombinant enzyme), COX-1
Assay type: biochemical
Particulars: Table I; pre-incubated 10-20 minutes, arachidonic acid 10 μM, stopped after ten minutes, pH 8.0
Record form. Attribute: IC50. Fill in for each entry.

Completed entries (count: 2):
- Molecule: "Cc1ccc(-c2cc(C(F)(F)F)nn2-c2ccc(S(N)(=O)=O)c(F)c2)cc1 [Example 4]"
  Property label: "IC50"
  Assay value: "40.5 µM"
- Molecule: "Cc1ccc(-c2cc(C(F)F)nn2-c2ccc(S(N)(=O)=O)c(F)c2)cc1Cl [Example 3]"
  Property label: "IC50"
  Assay value: "16.3 µM"

Parameters: items (list). Returns: IC50 for each item.
1. COc1ccc(-c2cc(C(F)F)nn2-c2ccc(S(N)(=O)=O)c(F)c2)cc1F [Example 10]
2. CS(=O)(=O)c1ccc(-c2cscc2-c2ccccc2)cc1F [Example 2]
3. CS(=O)(=O)c1ccc(-c2cc(C(F)(F)F)nn2C2CCCCC2)cc1F [Example 12]
4. CS(=O)(=O)c1ccc(-c2cc(C(F)(F)F)nn2-c2cccc(C(F)(F)F)c2)cc1F [Example 13]
5. CS(=O)(=O)c1ccc(-c2cc(C(F)F)nn2-c2ccc(F)cc2)cc1F [Example 18]
6. Cc1ccc(-n2nc(C(F)(F)F)cc2-c2ccc(S(C)(=O)=O)c(F)c2)cc1Cl [Example 15]

Ans.
1. > 100 µM
2. > 100 µM
3. > 100 µM
4. > 100 µM
5. > 100 µM
6. > 100 µM

* * *

Record form. Attribute: melting point. Fill in for each entry.
Where a name gives a salt, the structure may show the parent alone.

Completed entries (count: 2):
- Compound: "CS(=O)(=O)c1ccc(-c2cc(C(F)(F)F)nn2-c2ccc(F)cc2)cc1F [Example 11]"
  melting point: "228 to 229 °C"
- Compound: "NS(=O)(=O)c1ccc(-n2nc(C(F)(F)F)cc2-c2ccc(F)cc2)cc1F (as salt: trifluoroacetate) [Example 8]"
  melting point: "127 to 130 °C"

Parameters: items (list). Returns: melting point for each item.
1. CS(=O)(=O)c1ccc(-c2cc(C(F)(F)F)nn2-c2ccc(C#N)cc2)cc1F [Example 16]
2. NS(=O)(=O)c1ccc(-n2nc(C(F)(F)F)cc2-c2ccc(Cl)cc2)cc1F (as salt: trifluoroacetate) [Example 5]
3. Cc1onc(-c2ccc(F)cc2)c1-c1ccc(S(N)(=O)=O)c(F)c1 [Example 22]
4. CS(=O)(=O)c1ccc(-c2cscc2-c2ccccc2)cc1F [Example 2]
5. CS(=O)(=O)c1ccc(-c2cc(C(F)F)nn2-c2cccc(C(F)(F)F)c2)cc1F (as salt: trifluoroacetate) [Example 21]
6. CS(=O)(=O)c1ccc(C2=C(c3ccccc3)C(=O)OC2)cc1F [Example 24]

Ans.
152 to 153 °C
140 to 141 °C
176 to 177 °C
140 to 141 °C
110 to 111 °C
161 to 162 °C
